Target: SHP2-C SH2;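 further: peptide library displayed on the E. coli surface as eCPX fusions, selected cells deep-sequenced, score is each peptide's frequency after selection divided by its frequency in the input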
Assay: SH2 binding enrichment of the phosphorylated peptide, bacterial display (enrichment ratio); higher = better substrate or ligand; peptides without Tyr show the background
Label true (1) when SH2 binding enrichment >= 0.6; otherwise false (0).

Seq string: DVLVEYQGEGR [GNS_Y416]
Subject of test: SHP2-C SH2
Class label: true (1)

-- ask Given the entry PSPMPYACCQM [FOXL2_Y215_S217C] , answer whether its SH2 binding enrichment meets or surpasses 0.6.
-- reply false (0)

-- ask Given the entry EPVSDYINANV [PTPN11_Y304_I309V] , answer whether its SH2 binding enrichment meets or surpasses 0.6.
-- reply true (1)

-- ask Given the entry TSESSYFKSLN [NGEF_Y288_A286S_YF] , answer whether its SH2 binding enrichment meets or surpasses 0.6.
-- reply false (0)

-- ask Given the entry PGPPGYCDSSQ [COL12A1_Y3043] , answer whether its SH2 binding enrichment meets or surpasses 0.6.
-- reply true (1)

-- ask Given the entry KLVDVYVNDAF [PGK1_Y161_G158V] , answer whether its SH2 binding enrichment meets or surpasses 0.6.
-- reply true (1)

-- ask Given the entry SVLVPYEPPEV [TP53_Y220_V217L] , answer whether its SH2 binding enrichment meets or surpasses 0.6.
-- reply true (1)

-- ask Given the entry FYDANCDGKEY [MAPRE2_Y162_Y162C] , answer whether its SH2 binding enrichment meets or surpasses 0.6.
-- reply true (1)
